Measured values drawn from ChEMBL document CHEMBL1961873 for this set.

- target: Tyrosine-protein kinase ITK/TSK (Homo sapiens);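 note: mean percent inhibition of ITK from the GSK PKIS screen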
- settings: at 0.1 µM
value type: inhibition (%)
Expressed in %, but write only the number.

These solved cases illustrate the format of a correct answer.
CCS(=O)(=O)c1ccc(OC)c(Nc2ncc(-c3cccc(C(C)=O)c3)o2)c1 : 0.98
CS(=O)(=O)CCNCc1ccc(-c2ccc3ncnc(Nc4ccc(OCc5cccc(C(F)(F)F)c5)cc4)c3c2)o1 : 1.71
COc1ccccc1-c1cc(/C=C2\C(=O)Nc3ncc(Br)cc32)cc(Br)c1O : 1.08
CCn1c(-c2nonc2N)nc2cncc(C(=O)NCCNC)c21 : -0.27
COc1cc2c(cc1Nc1nc(Nc3cccc(F)c3C(N)=O)c3cc[nH]c3n1)N(C(=O)CN1CCN(C(C)C)CC1)CC2 : 1.77
CS(=O)(=O)Nc1ccc(-c2ccc3c(NC(=O)C4CC4)n[nH]c3c2)cc1 : 1.56
COC(=O)Nc1nc2cc(Oc3ccc(NC(=O)Nc4ccccc4)cc3)ccc2[nH]1 : -0.1
O=C(Nc1n[nH]c2nnc(-c3cccnc3)cc12)C1CC1 : 0.11

Hey, Tyrosine-protein kinase ITK/TSK (Homo sapiens) data for Cc1ccc(-c2cc3c(NC(=O)C4CC4)ncnc3o2)cc1 : inhibition came out at 1.76

Hey, Tyrosine-protein kinase ITK/TSK (Homo sapiens) data for N#Cc1ccc2c(-c3ccnc(NC4CC4)n3)c(-c3ccc(F)cc3)nn2c1 : inhibition came out at 0.02
